Please go through the items and note down their MIC90.
test system: Neisseria gonorrhoeae; test: Antibacterial activity against resistant Neisseria gonorrhoeae assessed inhibition of bacterial growth; assay type: functional
Give bare numbers, in µg/mL.

INSERT INTO assay_data (moleculesmiles, targetortestsystem, assayendpoint, observedvalue) VALUES
  ('CO[C@@H]1[C@@H](OC(=O)c2cc(Cl)c(C)[nH]2)[C@@H](O)[C@H](Oc2ccc3c(O)c(NC(=O)c4ccc(O)c(CC=C(C)C)c4)c(=O)oc3c2C)OC1(C)C', 'Neisseria gonorrhoeae', 'MIC90', 1);

# map each compound to its MIC90
1. CO[C@@H]1[C@@H](OC(=O)NOC(C)(C)C)[C@@H](O)[C@H](Oc2ccc3c(O)c(NC(=O)c4ccc(O)c(CC=C(C)C)c4)c(=O)oc3c2C)OC1(C)C
2. CO[C@@H]1[C@@H](OC(=O)c2ccc(C)[nH]2)[C@@H](O)[C@H](Oc2ccc3c(O)c(NC(=O)c4ccnc(N(C)C)c4)c(=O)oc3c2C)OC1(C)C
3. CCc1cc(C(=O)Nc2c(O)c3ccc(O[C@@H]4OC(C)(C)[C@H](OC)[C@@H](OC(=O)c5ccc(C)[nH]5)[C@H]4O)c(C)c3oc2=O)ccn1
4. CO[C@@H]1[C@@H](NC(=O)c2ccc(C)[nH]2)[C@@H](O)[C@H](Oc2ccc3c(O)c(NC(=O)c4ccc(O)c(CC=C(C)C)c4)c(=O)oc3c2C)OC1(C)C
5. CO[C@@H]1[C@@H](OC(=O)c2ccc(C)[nH]2)[C@@H](O)[C@H](Oc2ccc3c(O)c(NC(=O)c4cn(CC5CC5)cn4)c(=O)oc3c2C)OC1(C)C

### Response
1. 64
2. 0.5
3. 1
4. 64
5. 1

###

Assignment: determine reported MIC90 for the given compounds.
test system: Staphylococcus aureus; test: Antibacterial activity against Staphylococcus aureus assessed inhibition of bacterial growth; format: functional

INSERT INTO measurements (moleculesmiles, targetortestsystem, observedvalue) VALUES
  ('CCc1cc(C(=O)Nc2c(O)c3ccc(O[C@@H]4OC(C)(C)[C@H](OC)[C@@H](OC(=O)c5ccc(C)[nH]5)[C@H]4O)c(C)c3oc2=O)ccn1', 'Staphylococcus aureus', '1 µg/mL');

Give measured MIC90 for every item shown.
1. CC[C@H]1OC(=O)[C@H](C)[C@@H](O[C@H]2C[C@@](C)(OC)[C@@H](O)[C@H](C)O2)[C@H](C)[C@@H](O[C@@H]2O[C@H](C)C[C@H](N(C)C)[C@H]2O)[C@](C)(O)C[C@@H](C)CN(C)[C@H](C)[C@@H](O)[C@]1(C)O
2. CO[C@@H]1[C@@H](OC(=O)c2[nH]c(C)cc2C)[C@@H](O)[C@H](Oc2ccc3c(O)c(NC(=O)c4ccc(O)c(CC=C(C)C)c4)c(=O)oc3c2C)OC1(C)C
3. CO[C@@H]1[C@@H](OC(=O)c2ccc(C)[nH]2)[C@@H](O)[C@H](Oc2ccc3c(O)c(NC(=O)c4sc5nccn5c4C)c(=O)oc3c2C)OC1(C)C
4. C#CCCNC(=O)O[C@H]1[C@@H](O)[C@H](Oc2ccc3c(O)c(NC(=O)c4ccc(O)c(CC=C(C)C)c4)c(=O)oc3c2C)OC(C)(C)[C@@H]1OC

### Response
> 128 µg/mL
0.125 µg/mL
1 µg/mL
0.5 µg/mL
